Target: SARS-CoV-2 spike receptor binding domain (RBD), wild type (SARS-CoV-2, UniProt P0DTC2 319-539)
Assay: ELISA, RBD protein coated, mAb titrated
measured_property: EC50 (ng/mL)
Numeric only. Scale: ng/mL

Answered cases to consult:
Q. Report EC50 for C555 (antibody, V domains shown) VH: EVQLVESGGGLVKPGGSLRLSCAASGLTFSTTWMSWVRQAPGKGLEWVGRIKSKGDGGTTDFAGPVKGRFSISRDDSKNTLYLHMNSLKTEDTAVYYCTTDDPGSYYYGMDVWGQGTTVTVSS VL: QTVVTQEPSLTVSPGGTVTLTCASSTGAVTSGHYPYWFQQKPGQAPRTLIYATSNKHSWTPARFSGSLLGGKAALTLSGAQPEDEADYYCLLSYSGARVFGGGTKLTVL please.
A. 2.88

Q. Report EC50 for C538 (antibody, V domains shown) VH: QLQLQESGPGLVKPSETLSLTCTVSGGSISSSSYYWAWIRQPPGKGLEWIGNIYYSGITYYSPSLKSRVTISVDTSKNQFSLKLRSVTAADTAVYYCARQHRYGSGSSELLWGQGTLVTVSS VL: QSALTQPPSASGSPGQSVTISCTGTSSDVGSYNYVSWYQQHPGKAPKLMIYEVTKRPSGVPDRFSGSKSGNTASLTVSGLQADDEADYYCSSYAGSSNLIFGGGTKLTVL please.
A. 3.94

Q. Report EC50 for C534 (antibody, V domains shown) VH: QVQLVQSGAEVKKPGSSVRVSCKASGGTFSRNVISWVRQAPGQGLEWMGGIIPMFATANYAQKFQGRVTITADESSSTAYMELSSLRSEDTAVYYCAREDFILVSAPIRENSYYYYGMDVWGQGTTVTVSS VL: EIVLTQSPGTLSLSPGERATLSCRASQSVSSNYLAWYQQKPGQAPRLLIYDASSRATGIPDRFSGSGSGTDFTLTISRLEPEDFAVYYCQQYGGSPRTFGQGTKVEIK please.
A. 4.85

Further cases:
Q. Report EC50 for C546 (antibody, V domains shown) VH: EVQLLESGGGLVHPGGSLRLSCAASGFTFSTYAMHWVRQAPGKGLEWVSAISGSGTGTFYADSVKGRFSISRDNSKNTLYLQMNSLRAEDTAVYYCATERIAVSDTRMYNWFDPWGQGTLVTVSS VL: DIQMTQSPSSLSASVGDRVTLTCRASQGISTYLNWYQQKPGKAPNLLIYAASSLQSGVPSRFSGSGSGTDFTLTISSLQPEDFATYYCQQSYSAPPWTFGQGTKVEIK please.
A. 3.57

Q. Report EC50 for C548 (antibody, V domains shown) VH: QVQLVQSGAEVKKPGSSVKVSCKASGGTFSSYAISWVRQAPGQGLEWMGGIIPIFGTANYAQKFQGRVTITADESTSTAYMELSSLRSEDTAVYYCARREAYGPRDYYYYYGMDVWGQGTTVTVSS VL: QSALTQPPSASASLGASVTLTCTLSSGYSNYKVDWYQQRPGKGPRFVMRVGTGGIVGSKGDGIPDRFSVLGSGLNRYLTIKNIQEEDESDYHCGADQGSGSNFVGVFGGGTKLTVL please.
A. 1.72
